tested on: HCI-017.E2 (organoid from an ER-positive breast cancer xenograft); test: CTG-3D luminescence at 96 h relative to day-0 seeding control (ratio to day 0); higher = more growth / less cytotoxicity; PDxO 3D drug screen, 96 h, CTG-3D normalised to day-0 seeding control.; conditions: 12.5 pM; days in culture: 85
Measurement Label: CTG-3D luminescence at 96 h

{"Compound": "C[C@@H]1COCCN1c1cc(C2([S@](C)(=N)=O)CC2)nc(-c2cc[nH]c3nccc2-3)n1 [ceralasertib]", "Value Measured": 3.08}
{"Compound": "COc1cc2c(Oc3ccc4[nH]c(C)cc4c3F)ncnc2cc1OCCCN1CCCC1 [cediranib]", "Value Measured": 2.93}
{"Compound": "C[C@]12CC[C@@H]3c4ccc(O)cc4C[C@@H](CCCCCCCCC[S+]([O-])CCCC(F)(F)C(F)(F)F)[C@H]3[C@@H]1CC[C@@H]2O (some centres not stated) [fulvestrant]", "Value Measured": 2.84}
{"Compound": "Cc1nc(-c2cn3c(n2)-c2ccc(-c4cnn(C(C)(C)C(N)=O)c4)cc2OCC3)n(C(C)C)n1 [taselisib]", "Value Measured": 3.03}
{"Compound": "CC1(C)CCC(c2ccc(Cl)cc2)=C(CN2CCN(c3ccc(C(=O)NS(=O)(=O)c4ccc(N[C@H](CCN5CCOCC5)CSc5ccccc5)c(S(=O)(=O)C(F)(F)F)c4)cc3)CC2)C1 [navitoclax]", "Value Measured": 2.05}
{"Compound": "CC(C)n1nc(-c2ccc3oc(N)nc3c2)c2c(N)ncnc21 [sapanisertib]", "Value Measured": 2.96}
{"Compound": "Cc1cc(Nc2ncc(Cl)c(Nc3ccccc3S(=O)(=O)C(C)C)n2)c(OC(C)C)cc1C1CCNCC1 [ceritinib]", "Value Measured": 2.65}
